All figures here come from patent US11667675B2.

Target: rat MASP2 (Rattus norvegicus, UniProt Q9JJS8)
Construct: Ig-kappa secretion signal (N, cleaved yes)
Sequence (Q9JJS8 296-443): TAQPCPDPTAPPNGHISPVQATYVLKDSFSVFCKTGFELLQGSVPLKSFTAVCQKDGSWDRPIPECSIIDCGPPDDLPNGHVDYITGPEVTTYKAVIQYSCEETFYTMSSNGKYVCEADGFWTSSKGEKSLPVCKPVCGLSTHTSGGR
Sequence (Q9JJS8 444-685): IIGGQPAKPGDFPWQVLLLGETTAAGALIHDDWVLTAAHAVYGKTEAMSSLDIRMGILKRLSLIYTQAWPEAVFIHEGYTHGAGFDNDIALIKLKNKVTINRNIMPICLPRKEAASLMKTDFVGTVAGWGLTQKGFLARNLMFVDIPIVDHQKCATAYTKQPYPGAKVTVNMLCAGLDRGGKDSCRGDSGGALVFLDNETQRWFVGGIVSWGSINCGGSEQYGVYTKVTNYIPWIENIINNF
Assay: Biochemical rat MASP2 assay (FRET substrate)
Details: average IC50; recombinant rat MASP2, FRET substrate
Bridge positions count the residues as written; N and C are the ends. Square brackets hold non-standard residues; d marks the D form. Peptide text beside a SMILES is read from it. * marks the point of attachment. Oic = O=C(O)[C@@H]1C[C@@H]2CCCC[C@@H]2N1; Pen = CC(C)(S)[C@H](N)C(=O)O; X2 = N[C@@H](CN*)C(=O)O; Sar = CNCC(=O)O
Reported pIC50 values for a set of compounds
Please treat pIC50 as minus the base-10 logarithm of the molar concentration.

Entry CC[C@H](C)[C@H](NC(=O)CNC)C(=O)N[C@H]1CSSC(C)(C)[C@@H](C(=O)N[C@H](C(=O)N2CCC[C@H]2C(=O)NC[C@H](N)C(=O)O)[C@@H](C)CC)NC(=O)[C@H]([C@@H](C)CC)NC(=O)[C@@H]2C[C@@H]3CCCC[C@@H]3N2C(=O)[C@@H]2CCCN2C(=O)[C@H](CC(C)C)NC(=O)[C@H](CO)NC(=O)[C@H](CCCNC(=N)N)NC(=O)[C@H](CO)NC1=O [Example 467] (H-[Sar]ICSRSLP[Oic]I[Pen]IP-X2; disulfide 3-11) , rat MASP2 (Rattus norvegicus, UniProt Q9JJS8) data, pIC50 value: 7.15

Entry CC[C@H](C)[C@H](NC(=O)CNC)C(=O)N[C@H]1CSSC(C)(C)[C@@H](C(=O)N[C@H](C(=O)N2CCC[C@H]2C(N)=O)[C@@H](C)CC)NC(=O)[C@H]([C@@H](C)CC)NC(=O)[C@@H]2C[C@@H]3CCCC[C@@H]3N2C(=O)[C@@H]2CCCN2C(=O)[C@H](CC(C)C)NC(=O)[C@H](CO)NC(=O)[C@H](CCCNC(=N)N)NC(=O)[C@H](CO)NC1=O [Example 109, ((N-Me)G)-IC+SRSLP-(Oic)-I-(Pen)+IP-NH2] (H-[Sar]ICSRSLP[Oic]I[Pen]IP-NH2; disulfide 3-11) , rat MASP2 (Rattus norvegicus, UniProt Q9JJS8) data, pIC50 value: 7.38

Entry CC[C@H](C)[C@H](NC(=O)[C@H](C)NC)C(=O)N[C@H]1CSSC(C)(C)[C@@H](C(=O)N[C@H](C(=O)N2CCC[C@H]2C(N)=O)[C@@H](C)CC)NC(=O)[C@H]([C@@H](C)CC)NC(=O)[C@@H]2C[C@@]3(CN2C(=O)[C@@H]2CCCN2C(=O)[C@@H](CC(C)(C)C)NC(=O)[C@H](CO)NC(=O)[C@H](CCCNC(=N)N)NC(=O)[C@H](CO)NC1=O)CC3(F)F (single isomer, unassigned; enantiomer 1) , rat MASP2 (Rattus norvegicus, UniProt Q9JJS8) data, pIC50 value: 8.33

----------
Target: human MASP1 (Homo sapiens, UniProt P48740)
Construct: Ig-kappa secretion signal (N, cleaved yes)
Sequence (P48740 297-448): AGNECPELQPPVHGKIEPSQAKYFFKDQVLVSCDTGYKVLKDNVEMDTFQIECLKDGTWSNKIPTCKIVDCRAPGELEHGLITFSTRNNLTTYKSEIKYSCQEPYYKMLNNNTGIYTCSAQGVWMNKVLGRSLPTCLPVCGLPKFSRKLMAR
Sequence (P48740 449-699): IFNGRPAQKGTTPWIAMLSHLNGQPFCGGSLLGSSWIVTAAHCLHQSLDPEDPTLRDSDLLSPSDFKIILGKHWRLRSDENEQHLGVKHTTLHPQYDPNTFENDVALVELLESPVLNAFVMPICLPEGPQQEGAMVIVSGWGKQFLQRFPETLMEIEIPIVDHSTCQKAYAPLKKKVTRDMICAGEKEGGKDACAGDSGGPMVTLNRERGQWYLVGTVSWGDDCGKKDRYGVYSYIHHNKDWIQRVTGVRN
Assay: Biochemical human MASP1 assay (FRET substrate)
Conditions: average IC50
Where a name gives a salt, the structure may show the parent alone. Numbered stars: 1 amine (or outer) side, 2 acyl side, 3 side chain; on linkers, the order of the positions; unused ones are H or OH. Bridge positions count the residues as written; N and C are the ends. Square brackets hold non-standard residues; d marks the D form. Peptide text beside a SMILES is read from it. X1 = O=C(C1[C@H]2CCCC[C@H]2C[C@H]1C(=O)[*:2])[C@@H]1CCCN1[*:1]; Pro(4-spirocPr) = O=C(O)[C@@H]1CC2(CC2)CN1; tBuAla = CC(C)(C)C[C@H](N)C(=O)O; Pen = CC(C)(S)[C@H](N)C(=O)O; Sar = CNCC(=O)O
Strictly below 4 nM in IC50: 1. Otherwise: -1.

Examples from the recorded data:
CC[C@H](C)[C@H](NC(=O)[C@H](C)N)C(=O)N[C@H]1CSSC(C)(C)[C@@H](C(=O)N[C@H](C(=O)N2CCC[C@H]2C(=O)N[C@@H](CC(=O)O)C(N)=O)[C@@H](C)CC)NC(=O)[C@H]([C@@H](C)CC)NC(=O)[C@@H]2CC3(CC3)CN2C(=O)[C@@H]2CCCN2C(=O)[C@H](CC(C)(C)C)NC(=O)[C@H](CO)NC(=O)[C@H](CCCNC(=N)N)NC(=O)[C@H](CO)NC1=O [Example 45] (H-AICSRS[tBuAla]P[Pro(4-spirocPr)]I[Pen]IPD-NH2; disulfide 3-11)
1
CC[C@H](C)[C@H](NC(=O)CNC)C(=O)N[C@H]1CSSC(C)(C)[C@@H](C(=O)N[C@H](C(=O)N2CCC[C@H]2C(N)=O)[C@@H](C)CC)NC(=O)[C@H]([C@@H](C)CC)NC(=O)[C@@H]2C[C@@H]3CCCC[C@@H]3C2C(=O)[C@@H]2CCCN2C(=O)[C@H](CC(C)C)NC(=O)[C@H](CO)NC(=O)[C@H](CCCNC(=N)N)NC(=O)[C@H](CO)NC1=O (some centres unmarked) [Example 67, (HCl Salt)] (H-[Sar]ICSRSL[X1]I[Pen]IP-NH2; disulfide 3-10)
1
CC[C@H](C)[C@H](NC(=O)[C@H](C)NC)C(=O)N[C@H]1CSSC(C)(C)[C@@H](C(=O)N[C@H](C(=O)N2CCC[C@H]2C(N)=O)[C@@H](C)CC)NC(=O)[C@H]([C@@H](C)CC)NC(=O)[C@@H]2C[C@@]3(CN2C(=O)[C@@H]2CCCN2C(=O)[C@@H](CC(C)(C)C)NC(=O)[C@H](CO)NC(=O)[C@H](CCCNC(=N)N)NC(=O)[C@H](CO)NC1=O)CC3(F)F (single isomer, unassigned; enantiomer 1)
1

Inquiry: # strict comparison: is reported IC50 < 4 nM? input = `CC[C@H](C)[C@@H]1NC(=O)[C@@H]2CCCN2C(=O)[C@@H]2CCCN2C(=O)[C@H](CC(C)(C)C)NC(=O)[C@H](CO)NC(=O)[C@H](CCCNC(=N)N)NC(=O)[C@H](CO)NC(=O)[C@@H](NC(=O)[C@@H](NC(=O)C(C)(C)CN)[C@@H](C)CC)CSSC(C)(C)[C@@H](C(=O)N[C@H](C(=O)N2CCC[C@H]2C(=O)N[C@@H](CC(=O)O)C(N)=O)[C@@H](C)CC)NC1=O`
Reply text: -1

Inquiry: # strict comparison: is reported IC50 < 4 nM? input = CC[C@H](C)[C@H](NC(=O)[C@@H]1CSSC[C@H](NC(=O)[C@@H](NC(=O)[C@@H](N)C2CCOCC2)[C@@H](C)CC)C(=O)N[C@@H](CO)C(=O)N[C@@H](CCCNC(=N)N)C(=O)N[C@@H](CO)C(=O)N[C@@H](CC(C)C)C(=O)N2CCC[C@H]2C(=O)N2[C@@H](C[C@@H]3CCCC[C@@H]32)C(=O)N[C@@H]([C@@H](C)CC)C(=O)N1)C(=O)O (single isomer, unassigned)
Reply text: -1

----------
Test system: Human C3-[…]
Assay: C3 deposition assay, human serum on mannan-coated plates
Assay type: biochemical
Settings: average IC50, read-out: Human C3-DEPOSITION SERUM IC50
Bridge positions count the residues as written; N and C are the ends. Square brackets hold non-standard residues; d marks the D form. Peptide text beside a SMILES is read from it. Pro(4-spirocPr) = O=C(O)[C@@H]1CC2(CC2)CN1; Oic = O=C(O)[C@@H]1C[C@@H]2CCCC[C@@H]2N1; tBuAla = CC(C)(C)C[C@H](N)C(=O)O; Pen = CC(C)(S)[C@H](N)C(=O)O; ΔPro = O=C(O)[C@@H]1C=CCN1; NMeC = CN[C@@H](CS)C(=O)O; Sar = CNCC(=O)O
Reported log10(IC50) values for a set of molecules
Please keep in mind that the values are log10 of IC50 expressed in nM.

CC[C@H](C)[C@H](NC(=O)[C@H](C)N)C(=O)N[C@H]1CSSC(C)(C)[C@@H](C(=O)N[C@H](C(=O)N2CCC[C@H]2C(=O)N[C@@H](CC(=O)O)C(=O)O)[C@@H](C)CC)NC(=O)[C@H]([C@@H](C)CC)NC(=O)[C@@H]2C[C@@H]3CCCC[C@@H]3N2C(=O)[C@@H]2C=CCN2C(=O)[C@H](CC(C)C)NC(=O)[C@H](CO)NC(=O)[C@H](CCCNC(=N)N)NC(=O)[C@H](CO)NC1=O [Example 237] (H-AICSRSL[ΔPro][Oic]I[Pen]IPD-OH; disulfide 3-11)
1.17
CC[C@H](C)[C@H](NC(=O)CNC)C(=O)N[C@H]1CSSC(C)(C)[C@@H](C(=O)N[C@H](C(=O)N2CCC[C@H]2C(N)=O)[C@@H](C)CC)NC(=O)[C@H]([C@@H](C)CC)NC(=O)[C@@H]2C[C@@H]3CCCC[C@@H]3N2C(=O)[C@@H]2CCCN2C(=O)[C@H](CC(C)C)NC(=O)[C@H](CO)NC(=O)[C@H](CCCNC(=N)N)NC(=O)[C@H](CO)NC1=O [Example 109, ((N-Me)G)-IC+SRSLP-(Oic)-I-(Pen)+IP-NH2] (H-[Sar]ICSRSLP[Oic]I[Pen]IP-NH2; disulfide 3-11)
2.13
CC[C@H](C)[C@H](NC(=O)[C@H](C)N)C(=O)N[C@H]1CSSC(C)(C)[C@@H](C(=O)N[C@H](C(=O)N2CCC[C@H]2C(=O)N[C@@H](CC(=O)O)C(N)=O)[C@@H](C)CC)NC(=O)[C@H]([C@@H](C)CC)NC(=O)[C@@H]2CC3(CC3)CN2C(=O)[C@@H]2CCCN2C(=O)[C@H](CC(C)(C)C)NC(=O)[C@H](CO)NC(=O)[C@H](CCCNC(=N)N)NC(=O)[C@H](CO)NC1=O [Example 45] (H-AICSRS[tBuAla]P[Pro(4-spirocPr)]I[Pen]IPD-NH2; disulfide 3-11)
1.27
CC[C@H](C)[C@H](NC(=O)[C@H](C)N)C(=O)N[C@H]1CSSC(C)(C)[C@@H](C(=O)N[C@H](C(=O)N2CCC[C@H]2C(=O)N[C@@H](CC(=O)O)C(N)=O)[C@@H](C)CC)NC(=O)[C@H]([C@@H](C)CC)NC(=O)[C@@H]2C[C@@H]3CCCC[C@@H]3N2C(=O)[C@@H]2CCCN2C(=O)[C@H](CC(C)C)NC(=O)[C@H](CO)NC(=O)[C@H](CCCNC(=N)N)NC(=O)[C@H](CO)NC1=O
1.51
CC[C@H](C)[C@@H]1NC(=O)[C@@H]2CCCN2C(=O)[C@@H]2CCCN2C(=O)[C@H](CC(C)(C)C)NC(=O)[C@H](CO)NC(=O)[C@H](CCCNC(=N)N)NC(=O)[C@H](CO)NC(=O)[C@@H](NC(=O)[C@@H](NC(=O)C(C)(C)CN)[C@@H](C)CC)CSSC(C)(C)[C@@H](C(=O)N[C@H](C(=O)N2CCC[C@H]2C(=O)N[C@@H](CC(=O)O)C(N)=O)[C@@H](C)CC)NC1=O
1.52

Please examine the following record next.
Entry CC[C@H](C)[C@H](NC(=O)[C@H](C)N)C(=O)N[C@H]1CSSC[C@@H](C(=O)N[C@H](C(=O)N2CCC[C@H]2C(=O)N[C@@H](CC(=O)O)C(N)=O)[C@@H](C)CC)N(C)C(=O)[C@H]([C@@H](C)CC)NC(=O)[C@@H]2CCCN2C(=O)[C@@H]2CCCN2C(=O)[C@H](CC(C)(C)C)NC(=O)[C@H](CO)NC(=O)[C@H](CCCNC(=N)N)NC(=O)[C@H](CO)NC1=O [Example 48, AIC+SRS-((tBu)A)-PPI-((N-Me)C)+IPD-NH2] (H-AICSRS[tBuAla]PPI[NMeC]IPD-NH2; disulfide 3-11) , Human C3-[…] data, log10(IC50) value: 2.01
